target: Tubulin (Sus scrofa) (UniProt P02554+P02550); assay: Inhibition of porcine brain tubulin polymerization at 30 uM by turbidity assay
Sequence (P02550 whole entry, looked up): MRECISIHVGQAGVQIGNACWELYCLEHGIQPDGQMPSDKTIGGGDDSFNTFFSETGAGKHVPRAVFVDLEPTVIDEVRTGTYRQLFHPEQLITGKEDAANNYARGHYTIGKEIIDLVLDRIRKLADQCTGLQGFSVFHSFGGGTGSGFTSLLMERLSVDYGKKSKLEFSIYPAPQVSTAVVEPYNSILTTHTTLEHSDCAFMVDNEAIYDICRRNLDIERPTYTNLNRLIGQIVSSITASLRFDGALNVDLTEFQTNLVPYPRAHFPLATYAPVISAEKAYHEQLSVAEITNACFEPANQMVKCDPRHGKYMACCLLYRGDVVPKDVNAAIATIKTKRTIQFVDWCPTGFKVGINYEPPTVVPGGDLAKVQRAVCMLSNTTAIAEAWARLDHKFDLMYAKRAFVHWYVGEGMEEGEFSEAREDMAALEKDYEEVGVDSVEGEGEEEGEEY
Sequence (P02554 whole entry, looked up): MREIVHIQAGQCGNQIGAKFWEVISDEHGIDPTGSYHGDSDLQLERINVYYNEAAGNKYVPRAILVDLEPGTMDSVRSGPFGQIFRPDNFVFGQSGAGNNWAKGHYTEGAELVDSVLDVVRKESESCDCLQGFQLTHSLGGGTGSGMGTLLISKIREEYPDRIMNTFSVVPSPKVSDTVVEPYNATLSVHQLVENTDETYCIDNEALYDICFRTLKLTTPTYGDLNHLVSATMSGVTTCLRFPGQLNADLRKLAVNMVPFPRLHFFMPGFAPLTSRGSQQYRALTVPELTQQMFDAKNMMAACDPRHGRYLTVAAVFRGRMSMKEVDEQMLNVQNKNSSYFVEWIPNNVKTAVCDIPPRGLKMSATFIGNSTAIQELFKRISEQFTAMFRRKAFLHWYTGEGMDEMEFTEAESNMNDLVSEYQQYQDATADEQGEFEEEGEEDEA
parameter.measured: inhibition

These recorded examples may help you get a feel for the data.
COc1ccc([Si](C)(C)c2cc(OC)c3c(c2)OCO3)cc1O : 27%
COc1ccc(C(C)c2cc(OC)c(OC)c(OC)c2)cc1O (racemic) [ISOERIANIN] : 54%

Could you tell me which inhibition is on file for "COc1ccc([Si](C)(C)c2cc(OC)c(OC)c(OC)c2)cc1O" ?
62%

Could you tell me which inhibition is on file for "COc1ccc([Si]2(c3cc(OC)c(OC)c(OC)c3)CCC2)cc1O" ?
87%
